Test system: Streptococcus mutans
Method Notes: anti-bacterial growth inhibition, S. mutans
Type: cell-based
Experimental Parameters: Streptococcus mutans; S. mutans, 100 μM, 10 hours, 30° C., OD 600 nm; read-out: Inhibition rate (100 μM)
inhibition at 100 µM below 4% gives No; inhibition at 100 µM at or above it gives Yes.

[
  {
    "Compound": "O=C(Oc1ccc(CCc2cc(OC(=O)c3ccccc3)cc(OC(=O)c3ccccc3)c2)cc1)c1ccccc1",
    "Test System": "Streptococcus mutans",
    "Category": "No"
  },
  {
    "Compound": "O=C(Oc1ccc(CCc2cc(OC(=O)c3ccc(Cl)cc3)cc(OC(=O)c3ccc(Cl)cc3)c2)cc1)c1ccc(Cl)cc1",
    "Test System": "Streptococcus mutans",
    "Category": "No"
  }
]

Req: Would you say `O=C(Oc1ccc(CCc2cc(OC(=O)C3CCCC3)cc(OC(=O)C3CCCC3)c2)cc1)C1CCCC1` shows inhibition at 100 µM at minimum 4%?
Resp: Yes

Req: Check the entry `CCCC(=O)Oc1ccc(CCc2cc(OC(=O)CCC)cc(OC(=O)CCC)c2)cc1` : does inhibition at 100 µM equal or exceed 4%?
Resp: Yes

Req: Hi team, for `CC(C)(C)C(=O)Oc1ccc(CCc2cc(OC(=O)C(C)(C)C)cc(OC(=O)C(C)(C)C)c2)cc1` , is the recorded inhibition at 100 µM at or above 4%?
Resp: Yes

Req: Is inhibition at 100 µM at least 4%? Consider `CCCOc1ccc(CCc2cc(OCCC)cc(OCCC)c2)cc1`
Resp: No

Req: Check if inhibition at 100 µM >= 4% (inclusive). Item: Oc1ccc(/C=C/c2cc(O)cc(O)c2)cc1 [Trans-resveratrol, trans-resveratrol, reference compound]
Resp: No

Req: Given the entry `CCOC(=O)COc1ccc(CCc2cc(OCC(=O)OCC)cc(OCC(=O)OCC)c2)cc1` , answer whether its inhibition at 100 µM meets or surpasses 4%.
Resp: Yes

====

Test system: Streptococcus sobrinus
Method Notes: anti-bacterial growth inhibition, S. sobrinus
Type: cell-based
Experimental Parameters: Streptococcus sobrinus; S. sobrinus, 25 μM, 10 hours, 30° C., OD 600 nm; read-out: Inhibition rate (25 μM)
Metric Name: inhibition at 25 µM
Number plus unit, in that order.

[
  {
    "Smiles Data": "CCCC(=O)Oc1ccc(CCc2cc(OC(=O)CCC)cc(OC(=O)CCC)c2)cc1",
    "inhibition at 25 µM": "7.35%"
  },
  {
    "Smiles Data": "C=CC(=O)Oc1ccc(CCc2cc(OC(=O)C=C)cc(OC(=O)C=C)c2)cc1",
    "inhibition at 25 µM": "22.7%"
  }
]

Then there is this molecule:
Req: State inhibition at 25 µM (Streptococcus sobrinus) of `CCCOc1ccc(CCc2cc(OCCC)cc(OCCC)c2)cc1` .
Resp: 6.33%

====

System: Trichophyton mentagrophytes
Method Notes: anti-fungal growth inhibition, T. mentagrophytes
Type: cell-based
Experimental Parameters: Trichophyton mentagrophytes, 168 h; T. mentagraphytes, 100 μM, one week, 30° C., OD 510 nm; read-out: Inhibition rate (100 μM)
Metric Name: inhibition at 100 µM (%)
Give bare numbers, in %.

[
  {
    "Compound": "O=C(Oc1ccc(CCc2cc(OC(=O)c3ccccc3)cc(OC(=O)c3ccccc3)c2)cc1)c1ccccc1 [DR7]",
    "Test System": "Trichophyton mentagrophytes",
    "inhibition at 100 µM, %": 18.6
  }
]

Kindly give each listed record's inhibition at 100 µM.
1. CC(C)(C)C(=O)Oc1ccc(CCc2cc(OC(=O)C(C)(C)C)cc(OC(=O)C(C)(C)C)c2)cc1 [DR11]
2. CCOC(=O)COc1ccc(CCc2cc(OCC(=O)OCC)cc(OCC(=O)OCC)c2)cc1 [DR1]
3. O=C(Oc1ccc(CCc2cc(OC(=O)C3CCCC3)cc(OC(=O)C3CCCC3)c2)cc1)C1CCCC1 [DR9]
4. O=C(Oc1ccc(CCc2cc(OC(=O)c3ccc(Cl)cc3)cc(OC(=O)c3ccc(Cl)cc3)c2)cc1)c1ccc(Cl)cc1 [DR5]
5. C=CCOc1ccc(CCc2cc(OCC=C)cc(OCC=C)c2)cc1 [DR3]

Resp:
9.36
36.4
25.9
14.1
20.1

Lab note: each compound below needs its inhibition at 100 µM filled in.
1. COc1ccc(C(=O)Oc2ccc(CCc3cc(OC(=O)c4ccc(OC)cc4)cc(OC(=O)c4ccc(OC)cc4)c3)cc2)cc1 [DR6]
2. CCCOc1ccc(CCc2cc(OCCC)cc(OCCC)c2)cc1 [DR2]

Resp:
21.6
33.7

Quick request: inhibition at 100 µM for each listed item, please.
1. CCCC(=O)Oc1ccc(CCc2cc(OC(=O)CCC)cc(OC(=O)CCC)c2)cc1 [DR4]
2. C=CC(=O)Oc1ccc(CCc2cc(OC(=O)C=C)cc(OC(=O)C=C)c2)cc1 [DR8]
3. Oc1ccc(/C=C/c2cc(O)cc(O)c2)cc1 [Trans-resveratrol, trans-resveratrol, reference compound]

Resp:
[32.6, 78.8, 32.4]

The reported numbers originate from patent US10351500B2.
